Molecular target: Insulin-degrading enzyme (Homo sapiens)
Test: exo-site inhibitors of human IDE, primary screen, biochemical, fluorescence anisotropy, probe displacement (AID 1259349);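 also: His-tagged human IDE residues 42-1019 made in E. coli with 30 nM FL-6b probe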
Conditions: purified IDE, FL-6b probe fluorescence polarization; at 20 µM; hits give low values
Hit rate of the full screen: of about 17,000 compounds, about 1,100 (6.5%) were called active. The sample as a whole holds a higher share of actives than the screen did.
// reported z-score for each item listed
METRIC: z-score

In [3]: df
Out[3]:
                          structure_notation   metric  assay_value
 0  OC[C@@H]1[C@H](c2ccc(C3=CCCC3)cc2)[C@H]2CN(Cc3ccncc3)CCCCN12  z-score         1.19
 1  CCCNC(=O)N1CC(=O)N2[C@@H](CO)[C@H](c3ccc(-c4ccc(C)cc4)cc3)[C@@H]2C1  z-score        -1.44
 2  CC(C)(O)C#Cc1ccc([C@H]2[C@H]3CN(C(=O)c4ccncc4)CCCCN3[C@H]2CO)cc1  z-score        0.748
 3  OC[C@H]1[C@H](c2ccc(-c3cccc(F)c3)cc2)[C@@H]2CN(Cc3cncnc3)CCCCN12  z-score        0.665
 4  Cc1cccc(-c2ccc([C@@H]3[C@H](CO)N4CCCCN(Cc5ccncc5)C[C@@H]34)cc2)c1  z-score        -5.19
 5  CNC[C@@H]1OCCCC[C@H](C)Oc2ccc(NC(=O)Nc3ccc(OC)cc3)cc2C(=O)N([C@H](C)CO)C[C@@H]1C  z-score         1.03
 6  C[C@H](NC(=O)C[C@H]1CC[C@H]2[C@@H](COC[C@H](O)CN2C(=O)Nc2cccc(Cl)c2)O1)c1ccccc1  z-score         1.23
 7  COCC(=O)N1CC(=O)N2[C@H](C1)[C@@H](c1ccc(C#Cc3cccc(OC)c3)cc1)[C@@H]2CO  z-score        -5.09
 8  CCC(=O)N1CCCCN2[C@H](CO)[C@@H](c3ccc(-c4cccnc4)cc3)[C@H]2C1  z-score        0.698
 9  OC[C@@H]1[C@H](c2ccc(Br)cc2)[C@@H]2CN(Cc3ccccn3)CCCCN12  z-score        0.871
10  O=C(C[C@H]1CC[C@@H]2NC[C@H](O)COC[C@H]2O1)NCCN1CCCCC1  z-score       -0.195
11  Cc1noc(C)c1S(=O)(=O)N(C)C[C@H]1Oc2ccc(N(C)C)cc2C(=O)N([C@H](C)CO)C[C@@H]1C  z-score        -1.17
12  C[C@@H]1CC(=O)N[C@H](c2ccccc2)C/C=C\C[C@H](c2ccccc2)NC1=O  z-score         1.16
13  CCCNC(=O)N1CC(=O)N2[C@H](CO)[C@@H](c3ccc(-c4ccc(F)cc4)cc3)[C@H]2C1  z-score       -0.254
14  O=C(C1CC1)N1CCCCN2[C@H](C1)[C@@H](c1ccc(-c3cccc(F)c3)cc1)[C@@H]2CO  z-score        -3.66
15  O=C(C1CC1)N1CCCCN2[C@H](CO)[C@H](c3ccc(-c4cccc(F)c4)cc3)[C@H]2C1  z-score        -6.38
16  CO[C@@H]1CN(C)C(=O)c2ccc(NS(=O)(=O)c3c(C)noc3C)cc2OC[C@H](C)NC[C@@H]1C  z-score         1.77
